System: MS2 coat protein
assayRemarks: apparent KD of MS2 coat protein; designed switch direction (-1 OFF switch, 1 ON switch): 1; higher = weaker reporter binding
runConditions: input ligand: FMN 200 uM
observedProperty: apparent KD of MS2 coat protein (nM)
Form entry: value (nM) — number only.

seqText	apparent KD of MS2 coat protein [nM]
GAGCCAGUCCGAGGAUAUUCAACAUGAGGAUCACCCAUGUAGGCUCAGAAAAGAAAAGAGCCUUGGGAGAAGGCGGACUGGCUC [Xeonanisa<<7] (Eterna round: R96, puzzle: Same State NG 2)	9.61
AACGGUCGACAAGGAUAUGGACGGACAGGUUUGCCUGUGCGGCUCACAUGAGGAUCACCCAUGUUCUAGAAGGUGUCACCAAGA [Tiinor] (Eterna round: R96, puzzle: Same State NG 2)	36.9
GUAAUCGUUAUAGGAUAUCAUGAGGAUUACCCAUGAGAAGGGUGAUCCCGAUCCAUAUUCAGAAAAUGAAUGUGGAUAGAUUGC [Omei NG1 A] (Eterna round: R96, puzzle: Same State NG 1)	46.8
UGUUGUUAAUUAGGAUAUGGGCACAUGAGGAUCACCCAUGUAUUGUCGAUGCUAUGUGGACACGUCUAGAAGGAAUGGCUAACA [SameState NG2 #90] (Eterna round: R96, puzzle: Same State NG 2)	72.9

Q. Quick one: apparent KD of MS2 coat protein of AGCUAUUAAUCAGGAUAUGGUCACAUGAGGAUCACCCAUGUAUAGAUGAUAAAAUGUGGUCAAUACUAGAAGGGAUUGCUAACA [SameState NG2 #63] (Eterna round: R96, puzzle: Same State NG 2) ?
A. 433

Q. Item: GAGCCAGUCCGAGGAUAUUCGUAGGAACACAUGAGGAUCACCCAUGUGGGCUCAGAAGAGCCCUGGGAGAAGGCGGGCUGGCUC [SS-NG2-LRO18] (Eterna round: R96, puzzle: Same State NG 2)
A. 7.53

Q. Further, for UUGAUAUGCGCAGGAUAUGGUGAGGAUCACCCACUAGAAGGGUGCACAUGAGAAUCGAACAUGAGGAUCACCCAUGUUCUGAGC (Eterna round: R96, puzzle: Same State NG 1) ?
A. 831

Q. Same thing, different sequence: GUUAGGAAUCUAGCAAACAUGAGGAUCACCCAUGUUAGUGGGAAGGAUAUGGUACAGAAACUGUACCAGAAGGUCUUAUUGUUU [Omei SS(NG) 3 AV9] (Eterna round: R96, puzzle: Same State NG 3)
A. 580
